Where these numbers come from: PubChem BioAssay (NCI)

Task for the reader: assign each of the following compounds its reported TGI.
Test system: PC-3 prostate
Experiment: NCI tumour cell line growth inhibition, 48 h
Quick reminder: number only, in µM, skip the unit.

What value of TGI on PC-3 prostate does CN(C)CCCCN1c2ccccc2Sc2ccc(N=[N+]=[N-])cc21 have?
10.5

How about this compound: CC1(C)CC[C@]2(C(=O)O)CC[C@]3(C)C(=CC[C@@H]4[C@@]5(C)C/C(=C/c6cccnc6)[C@H](O)C(C)(C)[C@@H]5CC[C@]43C)[C@@H]2C1
72.4

How about this compound: FC(F)(F)c1ccc2c(c1)nc(Cc1ccc(Cl)cc1)n2CC1CCCN2CCCCC12 (stereo not given)
20.9

How about this compound: COc1cc(C(=O)N[C@@H]2CCCN(C)C2)ccc1Nc1ncc2c(n1)N(C1CCCC1)CC(C)(C)C(=O)N2C
19.9

How about this compound: Nc1ncnc2c1ncn2C1SC(CO)C(O)C1O (stereo not given)
33.1
